Target: TRIM25 PRY/SPRY (Homo sapiens, UniProt Q14258 439-630)
Sequence (Q14258 439-630): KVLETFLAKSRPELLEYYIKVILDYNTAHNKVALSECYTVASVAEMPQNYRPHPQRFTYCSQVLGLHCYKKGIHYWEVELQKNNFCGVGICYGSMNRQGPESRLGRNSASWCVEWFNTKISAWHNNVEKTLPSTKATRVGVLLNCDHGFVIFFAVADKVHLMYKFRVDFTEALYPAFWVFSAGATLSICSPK
Assay: ITC; Supplementary Table 1 first row (probably pre-let-7) reads 0.76-0.97 uM; ITC: 20 mM MES pH 6.5, 75 mM NaCl, 0.5 mM TCEP, 20 C; protein NMR: 20 mM sodium phosphate pH 6.5, 150 mM NaCl, 2 mM TCEP, 293 K
Settings: protein: recombinant; tags: His-Trx, cleaved (3C); chain copies: 3; hairpin
MEASURED PARAMETER: pKd
Numbers only, as −log10 of the molar value.

What the record says about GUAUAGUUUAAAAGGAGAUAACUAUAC (structured_RNA) [pre-let-7a-1@2 (pre-let-7)] : pKd is 5.40
